experimentSummary: total protein half-life in vivo (active degradation + dilution); higher = more stable protein
reportedConditions: E. coli NCM3722 delta-clpP; growth: N-lim chemostat; doubling time 6 h
Assign total protein half-life in vivo to each entry below.
Give bare numbers, in h.

# itemSequence, total protein half-life in vivo, h
rows = [
    ("MRTISYSEARQNLSATMMKAVEDHAPILITRQNGEACVLMSLEEYNSLEETAYLLRSPANARRLMDSIDSLKSGKGTEKDIIE", 2),
    ("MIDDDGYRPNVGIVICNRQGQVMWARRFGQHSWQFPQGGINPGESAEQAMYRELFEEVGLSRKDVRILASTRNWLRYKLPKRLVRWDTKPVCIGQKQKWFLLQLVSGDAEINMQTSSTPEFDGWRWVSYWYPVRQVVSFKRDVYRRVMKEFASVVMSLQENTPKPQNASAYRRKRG [P0A776]", 5.62),
    ("MSTTNHDHHIYVLMGVSGSGKSAVASEVAHQLHAAFLDGDFLHPRRNIEKMASGEPLNDDDRKPWLQALNDAAFAMQRTNKVSLIVCSALKKHYRDLLREGNPNLSFIYLKGDFDVIESRLKARKGHFFKTQMLVTQFETLQEPGADETDVLVVDIDQPLEGVVASTIEVIKKGK", 4.47),
    ("MTTQTVSGRRYFTKAWLMEQKSLIALLVLIAIVSTLSPNFFTINNLFNILQQTSVNAIMAVGMTLVILTSGIDLSVGSLLALTGAVAASIVGIEVNALVAVAAALALGAAIGAVTGVIVAKGRVQAFIATLVMMLLLRGVTMVYTNGSPVNTGFTENADLFGWFGIGRPLGVPTPVWIMGIVFLAAWYMLHHTRLGRYIYALGGNEAATRLSGINVNKIKIIVYSLCGLLASLAGIIEVARLSSAQPTAGTGYELDAIAAVVLGGTSLAGGKGRIVGTLIGALILGFLNNGLNLLGVSSYYQMIVKAVVILLAVLVDNKKQ [P0AGI1]", 6.38),
]

Count: 5. Required value per item: total protein half-life in vivo.
1. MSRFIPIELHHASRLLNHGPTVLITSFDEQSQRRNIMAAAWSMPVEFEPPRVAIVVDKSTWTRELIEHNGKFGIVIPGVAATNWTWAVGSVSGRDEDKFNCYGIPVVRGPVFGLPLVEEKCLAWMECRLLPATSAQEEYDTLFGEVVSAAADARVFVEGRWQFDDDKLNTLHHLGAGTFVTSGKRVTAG
2. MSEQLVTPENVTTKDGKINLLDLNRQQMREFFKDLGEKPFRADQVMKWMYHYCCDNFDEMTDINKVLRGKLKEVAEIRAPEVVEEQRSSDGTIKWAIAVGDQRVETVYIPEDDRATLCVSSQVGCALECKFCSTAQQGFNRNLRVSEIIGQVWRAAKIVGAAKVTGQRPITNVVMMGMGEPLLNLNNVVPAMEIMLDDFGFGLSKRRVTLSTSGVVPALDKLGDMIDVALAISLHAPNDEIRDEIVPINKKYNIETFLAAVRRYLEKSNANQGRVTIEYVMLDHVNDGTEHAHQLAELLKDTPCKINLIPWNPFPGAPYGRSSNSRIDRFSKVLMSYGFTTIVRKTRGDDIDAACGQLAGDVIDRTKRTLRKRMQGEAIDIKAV
3. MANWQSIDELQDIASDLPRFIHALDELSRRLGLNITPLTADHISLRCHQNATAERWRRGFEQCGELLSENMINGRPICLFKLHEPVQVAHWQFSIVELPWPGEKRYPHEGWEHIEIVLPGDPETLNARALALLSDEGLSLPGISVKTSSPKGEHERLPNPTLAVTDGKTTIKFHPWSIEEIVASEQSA
4. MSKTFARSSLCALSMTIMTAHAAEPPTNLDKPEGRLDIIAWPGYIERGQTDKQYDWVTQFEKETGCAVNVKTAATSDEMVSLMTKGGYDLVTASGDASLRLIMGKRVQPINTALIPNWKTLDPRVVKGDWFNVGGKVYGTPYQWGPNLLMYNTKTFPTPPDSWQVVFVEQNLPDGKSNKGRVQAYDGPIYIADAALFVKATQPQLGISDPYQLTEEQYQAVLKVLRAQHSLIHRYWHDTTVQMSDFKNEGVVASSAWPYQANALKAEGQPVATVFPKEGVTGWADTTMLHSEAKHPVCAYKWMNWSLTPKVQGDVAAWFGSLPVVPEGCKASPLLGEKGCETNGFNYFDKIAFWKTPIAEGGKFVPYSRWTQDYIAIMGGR
5. MEYQLTLNWPDFLERHWQKRPVVLKRGFNNFIDPISPDELAGLAMESEVDSRLVSHQDGKWQVSHGPFESYDHLGETNWSLLVQAVNHWHEPTAALMRPFRELPDWRIDDLMISFSVPGGGVGPHLDQYDVFIIQGTGRRRWRVGEKLQMKQHCPHPDLLQVDPFEAIIDEELEPGDILYIPPGFPHEGYALENAMNYSVGFRAPNTRELISGFADYVLQRELGGNYYSDPDVPPRAHPADVLPQEMDKLREMMLELINQPEHFKQWFGEFISQSRHELDIAPPEPPYQPDEIYDALKQGEVLVRLGGLRVLRIGDDVYANGEKIDSPHRPALDALASNIALTAENFGDALEDPSFLAMLAALVNSGYWFFEG

Result:
1. 4.49
2. 2.76
3. 3.77
4. 5.67
5. 5.08

Count: 2. Required value per item: total protein half-life in vivo.
1. MMQHQVNVSARFNPETLERVLRVVRHRGFHVCSMNMAAASDAQNINIELTVASPRSVDLLFSQLNKLVDVAHVAICQSTTTSQQIRA [P0ADG1]
2. MFTGSIVAIVTPMDEKGNVCRASLKKLIDYHVASGTSAIVSVGTTGESATLNHDEHADVVMMTLDLADGRIPVIAGTGANATAEAISLTQRFNDSGIVGCLTVTPYYNRPSQEGLYQHFKAIAEHTDLPQILYNVPSRTGCDLLPETVGRLAKVKNIIGIKEATGNLTRVNQIKELVSDDFVLLSGDDASALDFMQLGGHGVISVTANVAARDMAQMCKLAAEGHFAEARVINQRLMPLHNKLFVEPNPIPVKWACKELGLVATDTLRLPMTPITDSGRETVRAALKHAGLL [P0A6L2]

Result:
1: 0.96; 2: 3.67
